molecular target: OsWRKY34 (Oryza sativa, UniProt Q0JBA9 1-250); test: protein-binding microarray (RPBM); PBS, 2% BSA, 51.3 ng/ul salmon testes DNA, 50 uM zinc acetate, 200 nM TF, 25 C, 1 h; high values mean tight binding; conditions: protein: recombinant; tags: N-terminal polyhistidine and DsRed monomer fusion (pET32a); label: CyDye5-dUTP incorporated in the synthesized complementary strand; 3' TTTTT single-stranded linker to array surface; dsDNA, one strand shown
Sequence (Q0JBA9 entry or part of it): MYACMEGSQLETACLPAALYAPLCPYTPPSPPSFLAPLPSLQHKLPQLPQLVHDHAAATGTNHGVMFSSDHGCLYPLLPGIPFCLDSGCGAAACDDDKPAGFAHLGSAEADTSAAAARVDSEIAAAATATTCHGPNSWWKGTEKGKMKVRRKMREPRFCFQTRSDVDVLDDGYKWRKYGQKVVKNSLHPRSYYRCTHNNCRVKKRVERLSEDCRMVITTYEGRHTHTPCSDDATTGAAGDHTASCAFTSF
Whole data set: some 68,000 sequences, median “fluorescence intensity (a.u.)” near 9,100, cut for the highest 2% near 16,000. Many of the other results were omitted from the sample, so the highest values are more common in it than they were.
Below is a list of entries, each paired with its recorded binding signal value.

| POLYMER_SEQUENCE | MEASUREMENT_TARGET | binding signal |
| --- | --- | --- |
| GGCCATAGCGTGTATTGTTGTGTTTGTGTGTAAAATTTTTCGGAGTCACCTAGTGCAG | OsWRKY34 (Oryza sativa, UniProt Q0JBA9 1-250) | 11300 fluorescence intensity (a.u.) |
| TTCCTGCTCTGTCCGTGCTCGACTCAATTCATTGTCAACCCGGAGTCACCTAGTGCAG | OsWRKY34 (Oryza sativa, UniProt Q0JBA9 1-250) | 8690 fluorescence intensity (a.u.) |
| ACCGTTGACTTTTTAGCACATGTTTGACCGCTCGTCTTATCGGAGTCACCTAGTGCAG | OsWRKY34 (Oryza sativa, UniProt Q0JBA9 1-250) | 54800 fluorescence intensity (a.u.) |
| ATGCTTGCTTGCCTGCCTTATCTGCGTCTTGAATTGCATCCGGAGTCACCTAGTGCAG | OsWRKY34 (Oryza sativa, UniProt Q0JBA9 1-250) | 10100 fluorescence intensity (a.u.) |
| ATCCCCAGCCTCCAATACCGGTCCCGTGCTTGTTTTTCTTCGGAGTCACCTAGTGCAG | OsWRKY34 (Oryza sativa, UniProt Q0JBA9 1-250) | 9470 fluorescence intensity (a.u.) |
| TACCGGTTAAAACGCCCAAGTCAGTGGCTCTCGTCCTCCTCGGAGTCACCTAGTGCAG | OsWRKY34 (Oryza sativa, UniProt Q0JBA9 1-250) | 8860 fluorescence intensity (a.u.) |
| AATTTTTATATTGTTGACCTGCAGATCCTTATGTTGGACTCGGAGTCACCTAGTGCAG | OsWRKY34 (Oryza sativa, UniProt Q0JBA9 1-250) | 8260 fluorescence intensity (a.u.) |
| GTTGACTTTTTTAAACATGTTGGACCGTTCGTCTTATTCACGGAGTCACCTAGTGCAG | OsWRKY34 (Oryza sativa, UniProt Q0JBA9 1-250) | 9150 fluorescence intensity (a.u.) |
| CAATCCATCAAACATGCAGTCAAGGTGTATTATTCAGTATCGGAGTCACCTAGTGCAG | OsWRKY34 (Oryza sativa, UniProt Q0JBA9 1-250) | 9880 fluorescence intensity (a.u.) |
